Tested on: Zika virus (ZikV mr766)
Assay: Antiviral CPE reduction assay, Zika virus mr766 in VeroE6 cells
Type: cell-based
Settings: MTS, mean ± SD, no unit printed on the supplement page (Table 2 of the same screen is in µM)
assay_metric: EC50

Prompt line: Requested field: EC50. Item: C=CC(=O)Nc1cccc(Nc2nc(Nc3ccc(NC4CN(CCF)C4)cc3OC)ncc2C(F)(F)F)c1 [CNX-2006, reference compound]
Response line: > 100 µM

---

System: HCoV-NL63
Assay: Antiviral CPE reduction assay, HCoV-NL63 in Hep3B cells
Assay type: cell-based, human coronavirus NL63
Settings: Human coronavirus NL63, MTS, mean ± SD of two or three independent experiments
pEC50: −log10 of the molar value.
Listing: pEC50 of selected molecules

Here are 5 molecules together with their reported answers.
Prompt line: Requested field: pEC50. Item: C#Cc1cccc(Nc2ncnc3cc4c(cc23)OCCOCCOCCO4)c1 [Icotinib, icotinib, reference compound]
Response line: < 4.00

Prompt line: Same for `CN1CCN(c2ncc3c(Nc4cccc5c4CCC5)ncnc3n2)CC1`
Response line: < 4.30

Prompt line: Same for `CCN(CC)CCNc1ncc2c(Nc3cccnc3)ncnc2n1`
Response line: < 4.30

Prompt line: Same for C=CC(=O)Nc1cccc(Oc2nc(Nc3ccc(N4CCN(C)CC4)cc3OC)ncc2Cl)c1 [WZ4002, reference compound]
Response line: < 4.00

Prompt line: Same for `CN(C)CCNc1ncc2c(Nc3cccc4c3CCCC4)ncnc2n1`
Response line: < 4.30

New cases:
Prompt line: Requested field: pEC50. Item: `C#Cc1cccc(Nc2ncnc3nc(N4CCN(C)CC4)ncc23)c1`
Response line: < 4.30

Prompt line: Same for `C#Cc1cccc(Nc2ncnc3nc(NC4CC4)ncc23)c1`
Response line: < 4.30
